Listed here: items and their measured Human brain derived TDP-43 aggregates Mean % competition at 2 μM.
molecular target: Human brain derived TDP-43 aggregates (Homo sapiens); construct: A sample of brain tissue (frontal or temporal cortex) was homogenized; from tissue; host or cells: sarkosyl-insoluble fraction of human FTD brain (frontal or temporal cortex); test: Micro-radiobinding competition assay on human FTD sarkosyl-insoluble brain extracts; type: binding; conditions: 2 μM test compound; radioligand [3H]-Compound 52 (75 nM)

Query :: Can you look up the measured Human brain derived TDP-43 aggregates Mean % competition at 2 μM of Cn1cc(N2CCc3nc(-c4ccc(N5CC[C@H](F)C5)nc4)sc3C2=O)cn1 for me?
Result :: 105.0ª %

Query :: Can you look up the measured Human brain derived TDP-43 aggregates Mean % competition at 2 μM of Cn1cc(N2CCc3nc(-c4ccc(N5CCC[C@@H](F)C5)nc4)sc3C2=O)cn1 for me?
Result :: 92.5ª %

Query :: Can you look up the measured Human brain derived TDP-43 aggregates Mean % competition at 2 μM of Nc1cc(N2CCc3nc(-c4ccc(N5CC[C@@H](F)C5)nc4)sc3C2=O)ccc1F for me?
Result :: 83.0ª %

Query :: Can you look up the measured Human brain derived TDP-43 aggregates Mean % competition at 2 μM of Nc1cccc(N2CCc3nc(-c4cnc(N5CC[C@H](F)C5)nc4)sc3C2=O)c1F for me?
Result :: 81.7ª %

Query :: Can you look up the measured Human brain derived TDP-43 aggregates Mean % competition at 2 μM of Nc1cc(N2CCc3nc(-c4ccc(N5CC[C@H](F)C5)nc4)sc3C2=O)ccc1F for me?
Result :: 70.8ª %

----------
Listed here: items and their measured Human brain derived TDP-43 aggregates Mean % competition at 250 nM.
biological target: Human brain derived TDP-43 aggregates (Homo sapiens, UniProt Q13148); construct: A sample of brain tissue (frontal or temporal cortex) was homogenized; from tissue; host or cells: sarkosyl-insoluble fraction of human FTD brain (frontal or temporal cortex); assay: Micro-radiobinding competition assay on human FTD sarkosyl-insoluble brain extracts; format: binding; conditions: 250 nM test compound; radioligand [3H]-Compound 52 (75 nM)
Sequence (Q13148 whole entry): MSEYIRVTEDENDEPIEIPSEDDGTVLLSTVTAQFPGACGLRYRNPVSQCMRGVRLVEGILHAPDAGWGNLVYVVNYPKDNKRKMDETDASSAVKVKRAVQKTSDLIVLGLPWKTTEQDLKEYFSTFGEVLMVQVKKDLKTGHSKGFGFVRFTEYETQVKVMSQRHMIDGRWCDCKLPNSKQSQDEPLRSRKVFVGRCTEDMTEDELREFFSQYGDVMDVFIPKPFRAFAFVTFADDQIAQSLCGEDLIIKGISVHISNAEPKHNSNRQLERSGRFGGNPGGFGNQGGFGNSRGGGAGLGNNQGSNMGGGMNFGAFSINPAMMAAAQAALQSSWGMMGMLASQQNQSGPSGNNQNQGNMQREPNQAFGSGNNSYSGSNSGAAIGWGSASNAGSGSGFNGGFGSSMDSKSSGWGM

These recorded examples may help you get a feel for the data.
>  <molecularString>
Cn1cc(N2CCc3nc(-c4ccc(N5CC[C@H](F)C5)nc4)sc3C2=O)cn1

>  <observedResult>
69.4ª %

$$$$
>  <molecularString>
N#Cc1ccc(N2CCc3nc(-c4ccc(N5CCC[C@@H](F)C5)nc4)sc3C2=O)cc1N

>  <observedResult>
55.9ª %

$$$$
>  <molecularString>
Nc1cc(N2CCc3nc(-c4cnc(N5CC[C@@H](F)C5)cn4)sc3C2=O)ccc1F

>  <observedResult>
53.0ª %

$$$$
>  <molecularString>
Nc1cccc(N2CCc3nc(-c4cnc(N5CCC[C@H](F)C5)nc4)sc3C2=O)c1F

>  <observedResult>
46.9ª %

$$$$
>  <molecularString>
Nc1cccc(N2CCc3nc(-c4cnc(N5CC[C@H](F)C5)nc4)sc3C2=O)c1F

>  <observedResult>
50.2ª %

$$$$
>  <molecularString>
N#Cc1ccc(N2CCc3nc(-c4ccc(N5CC[C@H](F)C5)nc4)sc3C2=O)cc1N

>  <observedResult>
64.2ª %

$$$$
>  <molecularString>
Nc1cc(N2CCc3nc(-c4ccc(N5CCCC5)nc4)sc3C2=O)ccc1F

>  <observedResult>
62.2ª %

$$$$

# next compound below
Query :: Can you look up the measured Human brain derived TDP-43 aggregates Mean % competition at 250 nM of Nc1cccc(N2CCc3nc(-c4ccc(N5CC[C@@H](F)C5)nc4)sc3C2=O)c1F for me?
Result :: 56.9ª %

----------
target: Human brain derived TDP-43 aggregates (Homo sapiens); construct: A sample of brain tissue (frontal or temporal cortex) was homogenized; from tissue; host or cells: sarkosyl-insoluble fraction of human FTD brain (frontal or temporal cortex); experiment: Micro-radiobinding competition assay on human FTD sarkosyl-insoluble brain extracts; format: binding; conditions: radioligand [3H]-Compound 52 (75 nM); 0.24 nM to 2 μM test compound
observedProperty: pKi
When answering, recall that pKi equals minus log10 of the concentration in mol/L, and write that number alone.

These recorded examples may help you get a feel for the data.
>  <molecularString>
Nc1cccc(N2CCc3nc(-c4cnc(N5CC[C@@H](F)C5)cn4)sc3C2=O)c1F

>  <studyTarget>
Human brain derived TDP-43 aggregates (Homo sapiens)

>  <observedProperty>
pKi

>  <observedResult>
6.94

$$$$
>  <molecularString>
Nc1cccc(N2CCc3nc(-c4ccc(N5CCCC5)nc4)sc3C2=O)c1F

>  <studyTarget>
Human brain derived TDP-43 aggregates (Homo sapiens)

>  <observedProperty>
pKi

>  <observedResult>
7.23

$$$$
>  <molecularString>
Nc1cccc(N2CCc3nc(-c4ccc(N5CC[C@@H](F)C5)nc4)sc3C2=O)c1F

>  <studyTarget>
Human brain derived TDP-43 aggregates (Homo sapiens)

>  <observedProperty>
pKi

>  <observedResult>
6.96

$$$$

Query :: Can you look up the measured pKi of Cn1cc(N2CCc3nc(-c4ccc(N5CC[C@@H](F)C5)cc4)sc3C2=O)cn1 for me?
Result :: 6.89

Query :: Can you look up the measured pKi of Nc1cccc(N2CCc3nc(-c4cnc(N5CCC[C@H](F)C5)nc4)sc3C2=O)c1F for me?
Result :: 7.13

----------
molecular target: Human brain derived TDP-43 aggregates (Homo sapiens); construct: A sample of brain tissue (frontal or temporal cortex) was homogenized; from tissue; host or cells: sarkosyl-insoluble fraction of human FTD brain (frontal or temporal cortex); assay: Micro-radiobinding competition assay on human FTD sarkosyl-insoluble brain extracts; type: binding; conditions: 2 μM test compound; radioligand [3H]-Compound 52 (75 nM)
observedProperty: Human brain derived TDP-43 aggregates Mean % competition at 2 μM

These recorded examples may help you get a feel for the data.
>  <compound>
N#Cc1cc(N2CCc3nc(-c4ccc(N5CCCC5)nc4)sc3C2=O)ccc1N [Example 18]

>  <observedResult>
102.0ª %

$$$$
>  <compound>
Cn1cc(N2CCc3nc(-c4cnc(N5CCC[C@H](F)C5)nc4)sc3C2=O)cn1 [Example 45]

>  <observedResult>
64.3ª %

$$$$
>  <compound>
Nc1cc(N2CCc3nc(-c4cnc(N5CC[C@@H](F)C5)cn4)sc3C2=O)ccc1F [Example 35]

>  <observedResult>
74.6ª %

$$$$
>  <compound>
N#Cc1c(N)cccc1N1CCc2nc(-c3ccc(N4CC[C@H](F)C4)nc3)sc2C1=O [Example 21]

>  <observedResult>
40.1ª %

$$$$

# next compound below
Query :: Can you look up the measured Human brain derived TDP-43 aggregates Mean % competition at 2 μM of N#Cc1c(N)cccc1N1CCc2nc(-c3ccc(N4CCCC4)nc3)sc2C1=O [Example 16] for me?
Result :: 83.2ª %

----------
Listed here: items and their measured Human brain derived TDP-43 aggregates Mean % competition at 2 μM.
molecular target: Human brain derived TDP-43 aggregates (Homo sapiens); construct: A sample of brain tissue (frontal or temporal cortex) was homogenized; from tissue; host or cells: sarkosyl-insoluble fraction of human FTD brain (frontal or temporal cortex); experiment: Micro-radiobinding competition assay on human FTD sarkosyl-insoluble brain extracts; type: binding; details: 2 μM test compound; radioligand [3H]-Compound 52 (75 nM)

These recorded examples may help you get a feel for the data.
>  <compound>
N#Cc1cc(N2CCc3nc(-c4ccc(N5CC[C@@H](F)C5)nc4)sc3C2=O)ccc1N [Example 20]

>  <observedResult>
88.3ª %

$$$$
>  <compound>
Nc1cc(N2CCc3nc(-c4cnc(N5CCCC5)nc4)sc3C2=O)ccc1F [Example 42]

>  <observedResult>
79.6ª %

$$$$

# next compound below
Query :: Can you look up the measured Human brain derived TDP-43 aggregates Mean % competition at 2 μM of N#Cc1ccc(N2CCc3nc(-c4ccc(N5CC[C@H](F)C5)nc4)sc3C2=O)cc1N [Example 22] for me?
Result :: 80.3ª %
